Recorded pKd by entry
Biological target: human IL-6 (human, UniProt P05231 30-212)
Sequence (P05231 30-212 limits assumed): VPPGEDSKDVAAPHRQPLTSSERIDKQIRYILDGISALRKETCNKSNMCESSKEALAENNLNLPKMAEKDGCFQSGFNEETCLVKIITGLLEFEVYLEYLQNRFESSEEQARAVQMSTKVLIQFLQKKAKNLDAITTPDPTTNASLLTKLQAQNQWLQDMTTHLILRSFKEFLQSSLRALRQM
Experiment: SPR Biacore, supernatant, Protein A capture, 37 C
pKd here: minus log base 10 of the concentration, concentration in moles per litre.

Guide cases for pKd, answers given:
{"Binder": "Anti-IL-6 antibody, heavy chain S35H, G66D, Q99F / light chain WT (antibody, IgG1, V domains shown, IgG1; variable domains only) VH: EVQLVESGGGLVQPGGSLRLSCAASGFTFSPFAMHWVRQAPGKGLEWVAKISPGGSWTYYSDTVTDRFTFSLDTSKSTAYLQMNSLRAEDTAVYYCARFLWGYYALDIWGQGTLVTVSS VL: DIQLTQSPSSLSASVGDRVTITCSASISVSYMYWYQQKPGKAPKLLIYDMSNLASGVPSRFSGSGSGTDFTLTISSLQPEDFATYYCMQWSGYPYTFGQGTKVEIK", "pKd": 8.47}
{"Binder": "Anti-IL-6 antibody, heavy chain S35H, G66D, L100K / light chain WT (antibody, IgG1, V domains shown, IgG1; variable domains only) VH: EVQLVESGGGLVQPGGSLRLSCAASGFTFSPFAMHWVRQAPGKGLEWVAKISPGGSWTYYSDTVTDRFTFSLDTSKSTAYLQMNSLRAEDTAVYYCARQKWGYYALDIWGQGTLVTVSS VL: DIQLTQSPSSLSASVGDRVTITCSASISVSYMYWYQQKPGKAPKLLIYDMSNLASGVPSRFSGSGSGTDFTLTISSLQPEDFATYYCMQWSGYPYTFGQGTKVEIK", "pKd": 9.74}

What does the data say about its pKd? Entry: Anti-IL-6 antibody, heavy chain S35H, G66D, L100F / light chain M32L, M50D, N52S, M88Q (antibody, IgG1, V domains shown, IgG1; variable domains only; VL is variant III) VH: EVQLVESGGGLVQPGGSLRLSCAASGFTFSPFAMHWVRQAPGKGLEWVAKISPGGSWTYYSDTVTDRFTFSLDTSKSTAYLQMNSLRAEDTAVYYCARQFWGYYALDIWGQGTLVTVSS VL: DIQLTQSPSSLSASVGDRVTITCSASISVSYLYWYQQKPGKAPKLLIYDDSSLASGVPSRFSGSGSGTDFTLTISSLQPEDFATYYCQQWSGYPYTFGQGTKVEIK
9.37

Suppose we examine the binder Anti-IL-6 antibody, heavy chain S35H, G66D, Q99L / light chain WT (antibody, IgG1, V domains shown, IgG1; variable domains only) VH: EVQLVESGGGLVQPGGSLRLSCAASGFTFSPFAMHWVRQAPGKGLEWVAKISPGGSWTYYSDTVTDRFTFSLDTSKSTAYLQMNSLRAEDTAVYYCARLLWGYYALDIWGQGTLVTVSS VL: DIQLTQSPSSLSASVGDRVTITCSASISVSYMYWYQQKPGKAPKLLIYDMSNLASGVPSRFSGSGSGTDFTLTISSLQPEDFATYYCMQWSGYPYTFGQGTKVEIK ; what pKd value has been reported?
9.61

Request the reported pKd associated with Anti-IL-6 antibody, heavy chain S35H, G66D, Q99E / light chain M32L, M50D, N52S, M88Q (antibody, IgG1, V domains shown, IgG1; variable domains only; VL is variant III) VH: EVQLVESGGGLVQPGGSLRLSCAASGFTFSPFAMHWVRQAPGKGLEWVAKISPGGSWTYYSDTVTDRFTFSLDTSKSTAYLQMNSLRAEDTAVYYCARELWGYYALDIWGQGTLVTVSS VL: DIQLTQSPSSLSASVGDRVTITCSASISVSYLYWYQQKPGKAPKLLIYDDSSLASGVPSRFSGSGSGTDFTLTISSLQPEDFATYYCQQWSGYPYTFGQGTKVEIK
8.33

pKd for Anti-IL-6 antibody, heavy chain S35H, G66D, L100Y / light chain M32L, M50D, N52S, M88Q (antibody, IgG1, V domains shown, IgG1; variable domains only; VL is variant III) VH: EVQLVESGGGLVQPGGSLRLSCAASGFTFSPFAMHWVRQAPGKGLEWVAKISPGGSWTYYSDTVTDRFTFSLDTSKSTAYLQMNSLRAEDTAVYYCARQYWGYYALDIWGQGTLVTVSS VL: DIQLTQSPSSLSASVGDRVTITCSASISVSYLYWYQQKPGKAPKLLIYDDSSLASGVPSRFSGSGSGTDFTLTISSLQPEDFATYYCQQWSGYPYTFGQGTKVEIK ?
9.03

Name the reported pKd value associated with the binder Anti-IL-6 antibody, heavy chain S35H, G66D, L100S / light chain WT (antibody, IgG1, V domains shown, IgG1; variable domains only) VH: EVQLVESGGGLVQPGGSLRLSCAASGFTFSPFAMHWVRQAPGKGLEWVAKISPGGSWTYYSDTVTDRFTFSLDTSKSTAYLQMNSLRAEDTAVYYCARQSWGYYALDIWGQGTLVTVSS VL: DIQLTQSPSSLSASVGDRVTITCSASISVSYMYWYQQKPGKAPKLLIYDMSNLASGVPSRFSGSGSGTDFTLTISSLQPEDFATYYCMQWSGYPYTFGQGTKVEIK
9.71

Find the recorded pKd belonging to Anti-IL-6 antibody, heavy chain S35H, G66D, Q99I / light chain M32L, M50D, N52S, M88Q (antibody, IgG1, V domains shown, IgG1; variable domains only; VL is variant III) VH: EVQLVESGGGLVQPGGSLRLSCAASGFTFSPFAMHWVRQAPGKGLEWVAKISPGGSWTYYSDTVTDRFTFSLDTSKSTAYLQMNSLRAEDTAVYYCARILWGYYALDIWGQGTLVTVSS VL: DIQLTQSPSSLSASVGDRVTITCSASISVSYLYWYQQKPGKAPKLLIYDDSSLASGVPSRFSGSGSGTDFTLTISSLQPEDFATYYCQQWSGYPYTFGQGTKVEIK and report it.
10.42

# get_value(readout='pKd', item= Anti-IL-6 antibody, heavy chain S35H, G66D, L100W / light chain M32L, M50D, N52S, M88Q (antibody, IgG1, V domains shown, IgG1; variable domains only; VL is variant III) VH: EVQLVESGGGLVQPGGSLRLSCAASGFTFSPFAMHWVRQAPGKGLEWVAKISPGGSWTYYSDTVTDRFTFSLDTSKSTAYLQMNSLRAEDTAVYYCARQWWGYYALDIWGQGTLVTVSS VL: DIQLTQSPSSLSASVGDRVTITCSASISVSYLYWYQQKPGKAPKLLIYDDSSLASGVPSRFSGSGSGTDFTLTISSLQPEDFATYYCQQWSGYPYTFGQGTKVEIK )
8.70

Record request: pKd value, item Anti-IL-6 antibody, heavy chain S35H, G66D, Q99D / light chain WT (antibody, IgG1, V domains shown, IgG1; variable domains only) VH: EVQLVESGGGLVQPGGSLRLSCAASGFTFSPFAMHWVRQAPGKGLEWVAKISPGGSWTYYSDTVTDRFTFSLDTSKSTAYLQMNSLRAEDTAVYYCARDLWGYYALDIWGQGTLVTVSS VL: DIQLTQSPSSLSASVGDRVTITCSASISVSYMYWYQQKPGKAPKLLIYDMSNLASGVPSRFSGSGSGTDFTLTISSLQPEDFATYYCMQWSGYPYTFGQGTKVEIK
8.63

// provenance: patent US20240209076A1
